Biological target: hMC-4R (Homo sapiens, UniProt P32245)
Construct: expressed in transfected cells; host or cells: HEK293
Sequence (P32245 whole entry): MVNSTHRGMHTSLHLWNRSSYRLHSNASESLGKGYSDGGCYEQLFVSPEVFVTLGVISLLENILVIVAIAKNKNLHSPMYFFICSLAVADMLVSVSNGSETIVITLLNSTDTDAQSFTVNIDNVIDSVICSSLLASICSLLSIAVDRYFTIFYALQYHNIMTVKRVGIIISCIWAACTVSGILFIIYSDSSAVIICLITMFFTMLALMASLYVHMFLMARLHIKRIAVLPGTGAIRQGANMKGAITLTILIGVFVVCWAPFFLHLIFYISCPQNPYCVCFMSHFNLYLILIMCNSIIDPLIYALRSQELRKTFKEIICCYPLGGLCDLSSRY
Test: Functional assay (membrane based cAMP fluorescence polarization assay, agonistic activity)
Type: biochemical
Conditions: membrane preparations from HEK293 cells expressing the human melanocortin receptors; cAMP production
ENDPOINT LABEL: EC50 (µM)

Below are worked cases with known answers.
>>> result("NC(Cc1ccc(Cl)cc1)C(=O)N1CCC(c2cc(F)c(F)cc2OCCN2CCCCC2)CC1 (centres unmarked)")
0.11
>>> result("NC(Cc1ccc(Cl)cc1)C(=O)N1CCC(c2ccc(Cl)cc2OCCCN2CCCCC2)CC1 (centres unmarked)")
0.28
>>> result("NC(Cc1ccc(Cl)cc1)C(=O)N1CCC(c2cc(F)ccc2OCCN2CCCC2)CC1 (centres unmarked)")
0.57
>>> result("NC(Cc1ccc(Cl)cc1)C(=O)N1CCC(c2cc(F)c(F)cc2OCCN2CCCC2)CC1 (centres unmarked)")
0.17

a. NC(Cc1ccc(Cl)cc1)C(=O)N1CCC(c2ccccc2OCCN2CCCC2)CC1 (centres unmarked)
b. NC(Cc1ccc(Cl)cc1)C(=O)N1CCC(c2cc(Cl)ccc2OCCN2CCCC2)CC1 (centres unmarked)
c. NC(Cc1ccc(Cl)cc1)C(=O)N1CCC(c2ccccc2CCCN2CCCC2)CC1 (centres unmarked)
Asked: Put the items in sequence by EC50, from largest down. # respond with the labels, arranged in the requested order
Given back: a, c, b
